Consider the following compounds; for each one, report its composite z-score.
System: Sonic hedgehog protein (Shh)
Experiment: small-molecule binders of Shh protein, primary screen, biochemical, small-molecule microarray, 635/667 nm fluorescence (AID 1151);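 also: Shh protein binding to compounds spotted on small-molecule microarray slides; score combines spot fluorescence intensity with signal-to-noise across triplicate slides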
Conditions: small-molecule microarray binding, 635 nm fluorescence; higher = more signal
Give bare numbers.

Which composite z-score value belongs to COc1ccc([Si](C)(C)[C@@H]2[C@@H](CCO)O[C@]3(C(=O)N(Cc4cccc(N5C(=O)c6cccc7cccc5c67)c4)c4ccccc43)[C@H]2C)cc1 ?
0.552

# iterate: COCCOC(=O)N1C(=O)[C@@]2(c3cc(C#CC4(O)CCCCCC4)ccc31)[C@H](C(=O)N1CCCCCCC1)[C@H]1C(=O)O[C@H](c3ccccc3)[C@H](c3ccccc3)N1[C@@H]2c1ccc(OCCO)cc1
2.17

# iterate: CC(C)(C)OC(=O)CC[C@]1(C(=O)N2CCOCC2)N=C(c2ccc(OCCCO)cc2)O[C@H]1c1ccccc1
-0.733

# iterate: COC(=O)[C@@]1(Cc2ccc(OC)cc2)[C@H]2c3cc(C(=O)N4CCCC4)n(CCc4cc5ccccc5[nH]4)c3C[C@H]2CN1C(=O)c1ccccc1
-0.309

# iterate: NCCCCCCNC(=O)[C@H]1C[C@H]2C(=O)N[C@@H](Cc3ccccc3)C(=O)N2[C@H]1c1ccc(O)cc1
1.07

Kindly review the next compound as well.
Which composite z-score value belongs to C=CCN1C(=O)[C@@]2(O[C@@H](CCn3cc([C@H](O)c4ccccc4)nn3)[C@H]([Si](C)(C)c3ccc(OC)cc3)[C@H]2C)c2ccccc21 ?
1.7
